The reader will find reported log P (acid) values listed item by item below.
# ASSAY_INFO: log P determination by LC-MS in the acidic range
# Type: physicochemical
# APPLIED_CONDITIONS: LC-MS in the acidic range
# From the text: The LC-MS determination in the acidic range is effected at pH 2.7 using 0.1% aqueous formic acid and acetonitrile (contains 0.1% formic acid) as eluents, linear gradient from 10% acetonitrile to 95% acetonitrile. Alternatively, the determination is effected in the acidic range at pH 2.3 using 0.1% aqueous phosphoric acid and acetonitrile as eluents; linear gradient from 10% acetonitrile to 95% acetonitrile.
Answer with a number only.

The examples below pair each entry with its known result.
>  <COMPOUND>
Cc1cc(NC(=O)c2cccnc2)nn1CC(=O)O [Compound I-1-115]

>  <QUANTITY_MEASURED>
log P (acid)

>  <VALUE_REPORTED>
0.09

$$$$
>  <COMPOUND>
Cn1nc(NC(=O)c2cccnc2)c2cccnc21 [Compound I-1-39]

>  <QUANTITY_MEASURED>
log P (acid)

>  <VALUE_REPORTED>
0.78

$$$$
>  <COMPOUND>
Cc1cc(NC(=O)c2cccnc2)nn1S(C)(=O)=O [Compound I-1-277]

>  <QUANTITY_MEASURED>
log P (acid)

>  <VALUE_REPORTED>
1.03

$$$$
>  <COMPOUND>
CC[S+]([O-])CCn1nc(NC(=O)c2cccnc2)cc1C (stereo not shown) [Compound I-1-190]

>  <QUANTITY_MEASURED>
log P (acid)

>  <VALUE_REPORTED>
0.46

$$$$
>  <COMPOUND>
Cc1cc(NC(=O)c2ccnnc2)nn1Cn1nc(C2CC2)n(C2CC2)c1=O [Compound I-1-150]

>  <QUANTITY_MEASURED>
log P (acid)

>  <VALUE_REPORTED>
1.33

$$$$
>  <COMPOUND>
Cc1ccnn1Cn1nc(NC(=O)c2cccnc2)cc1C [Compound I-1-220]

>  <QUANTITY_MEASURED>
log P (acid)

>  <VALUE_REPORTED>
1.17

$$$$

# log P (acid) of N#Cc1cc(NC(=O)c2cccnc2)nn1Cc1ncccn1 [Compound I-1-269] = 1.0

# log P (acid) of O=C(Nc1ccn(-c2ccccn2)n1)c1cccnc1 [Compound I-1-52] = 1.32

# log P (acid) of COc1ccc(C(=O)Nc2cc(C)n(Cc3ccc(F)cc3)n2)cn1 [Compound I-1-110] = 2.47

# log P (acid) of Cc1cc(NC(=O)c2cccnc2)nn1CC(C)C [Compound I-1-12] = 1.59

# log P (acid) of Cc1cc(NC(=O)c2cccnc2)nn1C(=O)NCCOC(F)(F)F [Compound I-1-172] = 1.91

# log P (acid) of Cc1cc(NC(=O)c2cccnc2)nn1C(=O)NCc1ccc(F)cc1 [Compound I-1-328] = 2.12

# log P (acid) of Cc1cc(NC(=O)c2cnc(Cl)c(Cl)c2)nn1Cc1cccc(F)c1 [Compound I-1-96] = 3.26
